Consider the following binders; for each one, report its In vitro activity (%) compared with native peptide, vs GLP-1.
# assaySystem: human GLP-1 receptor (human, UniProt P43220 24-463)
# assayText: cell-based or functional assay
Bridge positions count the residues as written; N and C are the ends. Square brackets hold non-standard residues; d marks the D form. Ends that are not written are not given here. * marks the point of attachment. Acetyl(2-(4-imidazolyl)) = O=C(Cc1c[nH]cn1)*; Aib = CC(C)(N)C(=O)O
Numbers only, in %.

Answered examples (4):
{Acetyl(2-(4-imidazolyl))}-[Aib]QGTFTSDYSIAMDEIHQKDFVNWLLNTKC (bridge 15-19; numbers in words are those of the source; also: ring between positions 16 and 20, type not given here) [triple agonist of SEQ ID NO: 94]    0.5
Y[Aib]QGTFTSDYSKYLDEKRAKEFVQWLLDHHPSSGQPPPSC (bridge 16-20) [triple agonist of SEQ ID NO: 42]    33.9
Y[Aib]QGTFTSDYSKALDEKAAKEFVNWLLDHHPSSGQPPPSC (bridge 16-20) [triple agonist of SEQ ID NO: 98]    28.1
[Acetyl(2-(4-imidazolyl))][Aib]QGTFTSDKSSYLDERAAQDFVQWLLDGGPSSGAPPPSS (not fully specified) [triple agonist of SEQ ID NO: 38]    2.3

Batch request: In vitro activity (%) compared with native peptide, vs GLP-1 for each of the following binders.
1. {Acetyl(2-(4-imidazolyl))}-[Aib]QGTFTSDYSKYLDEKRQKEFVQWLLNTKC (bridge 15-19; numbers in words are those of the source; also: ring between positions 16 and 20, type not given here) [triple agonist of SEQ ID NO: 88]
2. Y[Aib]QGTFTSDYSKYLDEKAAKEFVQWLLDHHPSSGQPPPSC (bridge 16-20) [triple agonist of SEQ ID NO: 75]
3. [Acetyl(2-(4-imidazolyl))][Aib]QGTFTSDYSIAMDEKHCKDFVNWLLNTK (bridge 16-20; not fully specified) [triple agonist of SEQ ID NO: 60]
4. HGQGTFTSDCSKQLDGQAAQEFVAWLLAGGPSSGAPPPS [triple agonist of SEQ ID NO: 44]
5. Y[Aib]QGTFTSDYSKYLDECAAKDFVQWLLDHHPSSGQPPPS (bridge 16-20) [triple agonist of SEQ ID NO: 67]

Reply:
1. 9.6
2. 35.1
3. 106
4. 1.3
5. 28.5

Data provenance is patent US20230355720A1.
